Reference source: patent US20220135571A1

target-of-assay: EGFR TMLR (T790M/L858R), H1975 cell line (Homo sapiens, UniProt P00533, L858R/T790M)
Construct: H1975 cell line (CRL-5908; Lot BA70803) was obtained from American Type Culture Collection
Sequence (P00533 25-1210 T790M/L858R): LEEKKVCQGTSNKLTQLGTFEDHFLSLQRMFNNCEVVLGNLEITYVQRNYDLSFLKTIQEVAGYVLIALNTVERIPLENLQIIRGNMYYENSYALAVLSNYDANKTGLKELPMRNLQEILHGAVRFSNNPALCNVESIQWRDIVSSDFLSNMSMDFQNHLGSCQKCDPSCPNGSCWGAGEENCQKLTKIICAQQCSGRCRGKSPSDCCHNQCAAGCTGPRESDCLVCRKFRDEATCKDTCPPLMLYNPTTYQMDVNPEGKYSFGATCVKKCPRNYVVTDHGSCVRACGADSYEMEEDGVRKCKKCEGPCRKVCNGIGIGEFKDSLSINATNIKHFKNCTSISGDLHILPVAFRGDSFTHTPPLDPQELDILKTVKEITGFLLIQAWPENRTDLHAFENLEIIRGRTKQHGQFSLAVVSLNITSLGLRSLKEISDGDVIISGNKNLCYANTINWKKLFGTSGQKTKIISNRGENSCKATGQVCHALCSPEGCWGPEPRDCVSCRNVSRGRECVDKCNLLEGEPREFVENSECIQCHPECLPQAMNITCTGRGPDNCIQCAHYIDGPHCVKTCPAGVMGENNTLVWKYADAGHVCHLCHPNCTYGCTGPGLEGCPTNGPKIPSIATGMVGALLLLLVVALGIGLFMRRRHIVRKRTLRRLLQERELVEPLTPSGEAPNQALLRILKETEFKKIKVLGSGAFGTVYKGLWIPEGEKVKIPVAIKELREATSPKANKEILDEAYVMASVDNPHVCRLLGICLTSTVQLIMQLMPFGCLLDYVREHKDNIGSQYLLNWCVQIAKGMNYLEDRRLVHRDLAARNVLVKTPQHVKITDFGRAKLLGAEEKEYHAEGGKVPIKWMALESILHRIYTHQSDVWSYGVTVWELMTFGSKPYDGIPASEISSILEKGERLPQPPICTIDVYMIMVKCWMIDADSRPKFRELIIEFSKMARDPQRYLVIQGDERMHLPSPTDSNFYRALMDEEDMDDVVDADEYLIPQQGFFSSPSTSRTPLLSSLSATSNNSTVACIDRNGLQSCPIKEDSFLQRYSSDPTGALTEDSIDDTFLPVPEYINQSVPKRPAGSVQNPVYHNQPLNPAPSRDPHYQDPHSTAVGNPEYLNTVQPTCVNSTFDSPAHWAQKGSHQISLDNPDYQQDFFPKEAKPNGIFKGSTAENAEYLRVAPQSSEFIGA
protocol: HTRF Phospho EGFR TMLR Assay (Cellular)
conditions-used: H1975 cells, 16 hours compound incubation
Structures can show the parent of a compound that is named as a salt.
observation-type: IC50

{"compound": "CCN1CCN(c2ccc(-c3cc(Cl)c4cn(C(C(=O)Nc5nccs5)c5ncn6c5CCC6)nc4c3F)cc2)CC1 (stereo not shown)", "observation-type": "IC50", "value-measured": "2 nM"}
{"compound": "CC(=O)N1CCN(c2ccc(-c3cc(F)c4cn(C(C(=O)Nc5nccs5)c5ncn6c5C[C@@H](F)C6)nc4c3)cc2Cl)CC1 (stereo partly shown)", "observation-type": "IC50", "value-measured": "1 nM"}
{"compound": "O=C(Nc1nccs1)C(c1ncn2c1CCC2)n1cc2c(Cl)cc(-c3ccc(N4CCNCC4)c(Cl)c3)cc2n1 (stereo not shown) [Example 3, hydrochloride]", "observation-type": "IC50", "value-measured": "9 nM"}
{"compound": "CCN1CCN(c2ccc(-c3cc(Cl)c4cn(C(C(=O)Nc5nccs5)c5ncn6c5CCC6)nc4c3)cc2Cl)CC1 (stereo not shown)", "observation-type": "IC50", "value-measured": "11 nM"}
